assay info: Pharmacokinetics in rats following 10 mg/kg oral administration
Assay type: in vivo
condition summary: Sprague-Dawley, whole blood; rat, blood, PO 10 mg/kg, 0.5% MC, mean of N=3
property: AUC(0-t) (µg·h/mL)
Write the answer as a number in µg·h/mL, unit excluded.

Recorded AUC(0-t) of O=Cc1ccccc1C(=O)N1CCCC[C@H]1COc1cccc(O)c1C=O , please.
239

* * *

test target: hemoglobin (Homo sapiens)
Construct: from tissue; host or cells: whole blood (red blood cells)
Sequence (P69905 2-142 limits assumed): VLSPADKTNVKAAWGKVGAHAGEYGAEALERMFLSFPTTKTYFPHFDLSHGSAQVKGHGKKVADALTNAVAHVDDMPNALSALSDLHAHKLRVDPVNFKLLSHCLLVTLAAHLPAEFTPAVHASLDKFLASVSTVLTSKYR
Sequence (P68871 2-147 partner limits assumed): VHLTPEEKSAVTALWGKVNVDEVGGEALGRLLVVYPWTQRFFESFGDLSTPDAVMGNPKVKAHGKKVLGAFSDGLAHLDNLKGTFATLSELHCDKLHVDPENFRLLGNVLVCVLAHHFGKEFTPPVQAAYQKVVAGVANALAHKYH
assay info: Whole blood assay: oxygen equilibrium curves (Hemox Analyzer), change in p50
Type: cell-based
condition summary: whole blood 20% Hct (1 mM Hb), compound 1 mM, equimolar to hemoglobin, 1 h at 37° C.
Use 40% as the dividing line for Delta-p50 (%), with the line itself on the MET side and lower values as NOT MET.

Does the reported Delta-p50 (%) for O=Cc1cccc(-c2ncccc2COc2cccc(O)c2C=O)c1 fall at or above the 40% mark?
MET

Is Delta-p50 (%) at least 40%? Consider O=Cc1cccc(N2C(=O)CC[C@H]2COc2cccc(O)c2C=O)c1
MET

API: above_or_equal(metric=Delta-p50 (%), cutoff=40%) for item O=Cc1cccc(-c2cccnc2COc2cccc(O)c2C=O)n1
MET

Quick check: does CCOc1cccc(C(=O)N2CCCC[C@H]2COc2cccc(O)c2C=O)c1C=O have Delta-p50 (%) greater than or equal to 40%?
MET

Is reported Delta-p50 (%) greater than or equal to 40% here: O=Cc1ncccc1C(=O)N1CCCC[C@H]1COc1cccc(O)c1C=O
NOT MET

Could you tell me if the measured Delta-p50 (%) of O=Cc1ccccc1C(=O)N1CCCC[C@H]1COc1cccc(O)c1C=O reaches 40% or more?
MET

Entry O=Cc1ccc(C(=O)N2CCC[C@H](COc3cccc(O)c3C=O)C2)cc1 : is its Delta-p50 (%) no less than 40%?
NOT MET

Does the compound O=Cc1cnccc1C(=O)N1CCCC[C@H]1COc1cccc(O)c1C=O have recorded Delta-p50 (%) that is 40% or more?
MET

Reported Delta-p50 (%) reaches at least 40% for COc1ccc(C=O)c(C(=O)N2CCCC[C@H]2COc2cccc(O)c2C=O)c1 ?
NOT MET

Quick check: does O=Cc1c(O)cccc1OC[C@@H]1CCCCCN1C(=O)c1cccc(O)c1C=O (stereo in doubt) have Delta-p50 (%) greater than or equal to 40%?
NOT MET

In plain terms: is recorded Delta-p50 (%) at least 40% for O=Cc1cccc(-c2ccccc2COc2cccc(O)c2C=O)n1 ?
NOT MET

Threshold query (Delta-p50 (%) >= 40%) on O=Cc1cccc(-c2ncccc2COc2cccc(O)c2C=O)n1
NOT MET

Would you say COc1cccc(C(=O)N2CCCC[C@@H]2COc2cccc(O)c2C=O)c1C=O shows Delta-p50 (%) at minimum 40%?
MET

Has COc1cccc(C(=O)N2CCOC[C@H]2COc2cccc(O)c2C=O)c1C=O a recorded Delta-p50 (%) greater than or equal to 40%?
MET

Dear colleague, could you confirm whether CC1(C)C[C@@H](COc2cccc(O)c2C=O)N(C(=O)c2ccccc2C=O)C1 has Delta-p50 (%) at or above 40%?
MET

Does the reported Delta-p50 (%) for O=Cc1c(O)cccc1OC[C@@H]1CCCN1C(=O)c1cccc(O)c1C=O fall at or above the 40% mark?
MET

Hello, I need to know if CCOc1cccc(C(=O)N2CCCC[C@@H]2COc2cccc(O)c2C=O)c1C=O has measured Delta-p50 (%) not below 40%. Thanks!
MET

Check this compound for Delta-p50 (%) at or above 40%: O=Cc1ccccc1C(=O)N1CCOC[C@H]1COc1cccc(O)c1C=O
MET

Please check the record O=Cc1ccccc1C(=O)N1CCC[C@@H](COc2cccc(O)c2C=O)C1 and state if its Delta-p50 (%) is at or above 40%.
MET

API: above_or_equal(metric=Delta-p50 (%), cutoff=40%) for item COc1ncc(C=O)cc1-c1ncccc1COc1cccc(O)c1C=O
NOT MET

Is Delta-p50 (%) for COc1cccc(C(=O)N2CCCC[C@H]2COc2cccc(O)c2C=O)c1C=O at or above 40%?
MET

Entry CCOc1cccc(C(=O)N2CCOC[C@H]2COc2cccc(O)c2C=O)c1C=O : is its Delta-p50 (%) no less than 40%?
MET

For this compound, is measured Delta-p50 (%) 40% or higher? O=Cc1cccc(C(=O)N2CCC[C@H](COc3cccc(O)c3C=O)C2)c1
MET
